Test system: MCF7
Assay: Antiproliferative activity against human MCF7 cells after 24 to 72 hrs by MTT assay
Assay type: functional, cell-based
So I've got a bunch of molecules here, and I need their IC50 values.
Express the result in µM but write the number alone.

Task item: Field request: IC50 | item: C[C@H](CC[C@@H](O)[C@](C)(O)CO)[C@H]1CC[C@@]2(C)C3=CC[C@H]4C(C)(C)C(=O)CC[C@]4(C)C3=CC[C@]12C
Reply: 24.1

Task item: Same read-out for C[C@H](CC[C@H](O)[C@@](C)(O)CO)[C@H]1CC[C@@]2(C)C3=CC[C@H]4C(C)(C)C(=O)CC[C@]4(C)C3=CC[C@]12C ?
Reply: 16.3

Task item: Same read-out for C[C@H](CC[C@@H](O)[C@@](C)(O)CO)[C@H]1CC[C@@]2(C)C3=CC[C@H]4C(C)(C)C(=O)CC[C@]4(C)C3=CC[C@]12C ?
Reply: 24.1
